The origin of these recorded values is paper PMC10401645.

Below, each entry is listed alongside its reported pEC50.
Biological target: UniProt P28223
Sequence (P28223 whole entry): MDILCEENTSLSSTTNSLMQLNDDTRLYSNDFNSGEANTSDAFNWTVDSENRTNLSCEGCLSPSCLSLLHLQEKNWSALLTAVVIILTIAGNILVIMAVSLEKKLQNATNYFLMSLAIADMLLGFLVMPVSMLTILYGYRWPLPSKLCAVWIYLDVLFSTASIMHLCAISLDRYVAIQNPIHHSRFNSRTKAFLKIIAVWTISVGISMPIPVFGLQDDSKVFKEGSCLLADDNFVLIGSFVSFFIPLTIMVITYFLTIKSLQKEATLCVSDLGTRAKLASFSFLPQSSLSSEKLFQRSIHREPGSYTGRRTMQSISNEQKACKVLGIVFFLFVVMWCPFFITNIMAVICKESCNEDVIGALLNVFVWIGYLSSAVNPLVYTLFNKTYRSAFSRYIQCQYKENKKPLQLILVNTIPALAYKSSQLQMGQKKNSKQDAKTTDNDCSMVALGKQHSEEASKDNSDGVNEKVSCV
Experiment: NanoBiT miniGαq recruitment assay at 5-HT2A
Settings: miniGαq pEC50 (95% CI), LSD as reference agonist, 2 h AUC
# pEC50 is unitless: minus log10 of the molar concentration; print number only

query: Form field: pEC50 recorded for CCCc1cc(OC)c(CCN)cc1OC.Cl with UniProt P28223 (enter value)
result: 7.43

Next:
query: Under UniProt P28223: pEC50 value of CCCSc1cc(OC)c(CCN)cc1OC.Cl ?
result: 7.85

----------
Biological target: UniProt P28223
Assay: NanoBiT miniGαq recruitment assay at 5-HT2A
Settings: miniGαq EC50 (nM) (95% CI), LSD as reference agonist, 2 h AUC
Measured EC50, listed per entry.
State just the number; it will be interpreted in nM.

Check out these entries, answers already filled in.
query: So what's the measured EC50 for this one? COc1cc(SC)c(OC)cc1CCNCc1ccccc1O.Cl [25T-NBOH (2a)]
result: 4.45

query: Next entry: CCCSc1cc(OC)c(CCN)cc1OC.Cl
result: 14.3

query: Same read-out for COc1cc(SC)c(OC)cc1CCNCc1ccccc1OC.Cl [25T-NBOMe (2b)] ?
result: 4.22

query: Now this one: COc1cc([N+](=O)[O-])c(OC)cc1CCNCc1ccccc1O.Cl [25N-NBOH (2e)]
result: 1.73

More entries:
query: What value of measured EC50 is listed for CCCc1cc(OC)c(CCN)cc1OC.Cl ?
result: 37.6

query: Try CCOCc1cc(OC)c(CCN)cc1OC.Cl next.
result: 75

query: Next: COc1cc(SC)c(OC)cc1CC(C)N.Cl (stereo not shown)
result: 65.8

query: And what about the compound CCCSc1cc(OC)c(CCNCc2ccccc2OC)cc1OC.Cl ?
result: 11.3

query: Entry to check: COc1cc(CCN)c(OC)cc1C.Cl
result: 59.4

query: Repeat for the following compound: CCCSc1cc(OC)c(CCNCc2ccccc2O)cc1OC.Cl
result: 17.5
